// IC50 collected for TC-PTP (Homo sapiens (Human))
Report as a plain number; the unit nM is understood.

Worked examples follow.
CCOC(=O)c1cc2cc(C(F)(F)P(=O)(O)O)c(Br)cc2s1 [Ex. 1]	450
N#CCc1cc2cc(C(F)(F)P(=O)(O)O)c(Br)cc2s1 [Ex. 6]	370

Which IC50 is listed for CCOC(=O)c1cc2cc(Br)c(C(F)(F)P(=O)(O)O)cc2s1 [Ex. 7] ?
740

Which IC50 is listed for N#Cc1ccc2cc(Br)c(C(F)(F)P(=O)(O)O)cc2c1 [Ex. 10] ?
490

Which IC50 is listed for COC(=O)c1cc2cc(Br)c(C(F)(F)P(=O)(O)O)cc2s1 [Ex. 8] ?
2900

Which IC50 is listed for N#Cc1cc2cc(C(F)(F)P(=O)(O)O)c(Br)cc2s1 [Ex. 4] ?
1200

Which IC50 is listed for O=C(O)c1cc2cc(C(F)(F)P(=O)(O)O)c(Br)cc2s1 [Ex. 2] ?
260

Which IC50 is listed for NC(=O)c1cc2cc(C(F)(F)P(=O)(O)O)c(Br)cc2s1 [Ex. 3] ?
280

Which IC50 is listed for O=P(O)(O)C(F)(F)c1cc2cc(CO)sc2cc1Br [Ex. 5] ?
1500
